Target: kappa opioid receptor (Cavia porcellus, UniProt P41144)
Assay: Inhibition of U69,593-stimulated [35S]GTP-γ-S binding in guinea pig caudate
measured-attribute: pKi
Formally, pKi is defined as -log10 of the concentration c, with c in mol/L.

Looking up `CC(C)[C@@H](CN1CC[C@@](C)(c2cccc(O)c2)[C@@H](C)C1)NC(=O)[C@H]1Cc2ccc(O)cc2CN1` , I see its pKi listed as 10.70

###

Biological target: UniProtKB P33535
Assay: Radioligand competitive binding, [3H]DAMGO
Settings: read-out: K1 (nM ± SD) μ [3H]DAMGO
measured-attribute: Ki (nM)
Provide the reading as a plain figure in nM.

Sample records with Ki:
compound: CC(C)[C@@H](CN1CC[C@@](C)(c2cccc(O)c2)[C@@H](C)C1)NC(=O)[C@H]1Cc2ccccc2CN1 [Compound 16]
Ki / nM: 775
--
compound: CC(C)[C@@H](CN1CC[C@](C)(c2cccc(O)c2)[C@H](C)C1)NC(=O)[C@H]1Cc2ccc(O)cc2CN1 [Compound 21]
Ki / nM: 138
--
compound: CC(C)[C@@H](CN1CC[C@@](C)(c2cccc(O)c2)[C@@H](C)C1)NC(=O)[C@H]1Cc2ccc(O)cc2CN1 [Compound 14]
Ki / nM: 3.73

For CC(C)[C@@H](CN1CC[C@@](C)(c2cccc(O)c2)[C@@H](C)C1)NC(=O)[C@@H]1Cc2ccc(O)cc2CN1 [Compound 15] the compound record lists Ki as 596

###

Target: kappa opioid receptor (Cavia porcellus, UniProt P41144)
Assay: Radioligand competitive binding, [3H]U69,593
Settings: read-out: K1 (nM ± SD) κ [3H]U69,593; radioligand binding, [3H]U69,593
# note: exactly 0.6 nM is not below, so it is not met; use met for Ki strictly under it

molecule: CC(C)[C@@H](CN1CC[C@@](C)(c2cccc(O)c2)[C@@H](C)C1)NC[C@H]1Cc2ccc(O)cc2CN1C
qualitative-label: met

molecule: CC(C)[C@@H](CN1CC[C@@](C)(c2cccc(O)c2)[C@@H](C)C1)NC(=O)[C@H]1Cc2ccccc2CN1
qualitative-label: not met

stdin: Hi there! Is Ki for `CC(C)[C@@H](CN1CC[C@@](C)(c2cccc(O)c2)[C@@H](C)C1)NC(=O)[C@H]1Cc2ccc(O)cc2CN1C(=O)CN(C)C` below 0.6 nM, do you know?
stdout: not met

stdin: Hello, I'm reviewing records and need to know if Ki of `CC(C)[C@@H](CN1CC[C@@](C)(c2cccc(O)c2)[C@@H](C)C1)NC(=O)[C@@H]1Cc2ccc(O)cc2CN1` is below 0.6 nM. Could you check?
stdout: not met

stdin: Problem: For the molecule `CC(C)[C@@H](CN1CC[C@@](C)(c2cccc(O)c2)[C@@H](C)C1)NC[C@H]1Cc2ccc(O)cc2CN1` , is Ki under 0.6 nM?
stdout: not met

stdin: Hello, I'm reviewing records and need to know if Ki of `CC(C)[C@@H](CN1CC[C@](C)(c2cccc(O)c2)[C@H](C)C1)NC(=O)[C@H]1Cc2ccc(O)cc2CN1` is below 0.6 nM. Could you check?
stdout: not met

###

Target: mu opioid receptor (UniProt P33535)
Assay: Radioligand competitive binding, [3H]DAMGO
Conditions: read-out: K1 (nM ± SD) μ [3H]DAMGO
As shown below, each of these compounds has a reported Ki value.
Value expressed in nM; do not type the unit.

The cases that follow already have their Ki on record.
compound: CC(C)[C@@H](CN1CC[C@@](C)(c2cccc(O)c2)[C@@H](C)C1)NC(=O)[C@@H]1Cc2ccc(O)cc2CN1C [Compound 18]
measured-attribute: Ki
units-symbol: nM
obs-value: 37
//
compound: CC(C)[C@@H](CN1CC[C@@](C)(c2cccc(O)c2)[C@@H](C)C1)NC(=O)[C@H]1Cc2ccc(O)cc2CN1C(=O)CN(C)C [Compound 17]
measured-attribute: Ki
units-symbol: nM
obs-value: 164

From here, focus on the item given below.
Ki recorded for this compound, CC(C)[C@@H](CN1CC[C@@](C)(c2cccc(O)c2)[C@@H](C)C1)NC[C@H]1Cc2ccc(O)cc2CN1C [Compound 20] , is 59

###

Biological target: delta opioid receptor (UniProt P33533)
Experiment: Radioligand competitive binding, [3H]DADLE
Conditions: read-out: K1 (nM ± SD) δ [3H]DADLE; radioligand binding, [3H]DADLE
measured-attribute: Ki (nM)
Express your answer in nM, writing the number without its unit.

molecule: Oc1ccc2c3c1O[C@H]1c4[nH]c5c(c4C[C@@]4(O)[C@@H](C2)N(CC2CC2)CC[C@]314)C[C@@]1(O)[C@H]2Cc3ccc(O)c4c3[C@@]1(CCN2CC1CC1)[C@H]5O4 [6, nor-BNI, nor-binaltorphimine, reference compound]
Ki (nM): 86

For `CC(C)[C@@H](CN1CC[C@@](C)(c2cccc(O)c2)[C@@H](C)C1)NC(=O)[C@@H]1Cc2ccc(O)cc2CN1C` the molecule record lists Ki as 616

###

Target: delta opioid receptor (UniProt P33533)
Assay: Radioligand competitive binding, [3H]DADLE
Conditions: read-out: K1 (nM ± SD) δ [3H]DADLE
measured-attribute: Ki
Remember to quote the unit after the number.

Entry `CC(C)[C@@H](CN1CC[C@@](C)(c2cccc(O)c2)[C@@H](C)C1)NC[C@H]1Cc2ccc(O)cc2CN1` , Ki reported as 5570 nM

###

Test system: kappa opioid receptor
Assay: Radioligand competitive binding, [3H]U69,593
Details: ratio of binding Ki values, Table 1
measured-attribute: μ/κ

molecule: CC(C)[C@@H](CN1CC[C@@](C)(c2cccc(O)c2)[C@@H](C)C1)NC(=O)[C@H]1Cc2ccccc2CN1
μ/κ: 369

molecule: CC(C)[C@@H](CN1CC[C@@](C)(c2cccc(O)c2)[C@@H](C)C1)NC(=O)[C@@H]1Cc2ccc(O)cc2CN1C
μ/κ: 700

molecule: CC(C)[C@@H](CN1CC[C@@](C)(c2cccc(O)c2)[C@@H](C)C1)NC(=O)[C@H]1Cc2ccc(O)cc2CN1C(=O)CN(C)C
μ/κ: 11

Lab note: next compound to report on.
Input `CC(C)[C@@H](CN1CC[C@@](C)(c2cccc(O)c2)[C@@H](C)C1)NC[C@H]1Cc2ccc(O)cc2CN1C` . Output μ/κ: 107

###

Biological target: delta opioid receptor (UniProt P33533)
Assay: Radioligand competitive binding, [3H]DADLE
Conditions: radioligand binding, [3H]DADLE; read-out: K1 (nM ± SD) δ [3H]DADLE
measured-attribute: Ki

Please review the entries below; each comes with its answer.
molecule: CC(C)[C@@H](CN1CC[C@](C)(c2cccc(O)c2)[C@H](C)C1)NC(=O)[C@H]1Cc2ccc(O)cc2CN1
Ki: 144 nM

molecule: CC(C)[C@@H](CN1CC[C@@](C)(c2cccc(O)c2)[C@@H](C)C1)NC(=O)[C@@H]1Cc2ccc(O)cc2CN1
Ki: > 4900 nM

molecule: CC(C)[C@@H](CN1CC[C@@](C)(c2cccc(O)c2)[C@@H](C)C1)NC(=O)[C@H]1Cc2ccc(O)cc2CN1
Ki: 301 nM

Recorded Ki (compound `CC(C)[C@@H](CN1CC[C@@](C)(c2cccc(O)c2)[C@@H](C)C1)NC[C@H]1Cc2ccc(O)cc2CN1C` ): 2230 nM
